Where do these numbers come from? They come from patent US20210101970A1.

Would you kindly list pEC50 for each of these binders?
# Tested system: T1, human CXCR5 (human, UniProt P32302 1-372)
# T1 construct: also called hCXCR5; C-X-C chemokine receptor type 5
# T1 sequence: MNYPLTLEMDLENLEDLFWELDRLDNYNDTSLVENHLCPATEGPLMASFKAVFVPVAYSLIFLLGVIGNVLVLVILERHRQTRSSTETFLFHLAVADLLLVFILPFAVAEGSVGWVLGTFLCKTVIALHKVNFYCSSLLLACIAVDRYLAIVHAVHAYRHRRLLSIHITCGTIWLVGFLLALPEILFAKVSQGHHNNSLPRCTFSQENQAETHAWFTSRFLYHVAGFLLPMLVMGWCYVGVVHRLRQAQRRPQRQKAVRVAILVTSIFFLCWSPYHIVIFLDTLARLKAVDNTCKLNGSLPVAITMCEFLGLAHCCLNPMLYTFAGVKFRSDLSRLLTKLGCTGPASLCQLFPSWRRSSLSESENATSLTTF
# Test: flow cytometry, human PBMC B cells
Answer as the number alone; pEC50 is minus log10 of concentration in mol/L.

The measured pEC50 associated with Humanized 11G2 151/152 (antibody, human IgG1, V domains shown, also called h11G2 VH (XC152)/VL (XC151)) VH: EVQLVESGGGLVKPGGSLRLSCAASGFTFTDFYMSWVRQAPGKGLEWLGFIRNKANGYTTEYSAPVKGRFTISRDDSKNTLYLQMNSLKTEDTAVYYCVRVYGSTLHYWGQGTLVTVSS VL: DIQMTQSPSSLSASVGDRVTITCRASESVEYHGTSLMHWYQQKPGKAPKLLIYAASNVESGVPSRFSGSGSGTDFTLTISSLQPEDFATYYCQQSRKVPWTFGQGTKVEIK reads 10.88

The measured pEC50 associated with Afucosyl humanized 11G2 154/155 (antibody, human IgG1, kappa, V domains shown, afucosylated Fc glycan (Asn297), also called afucosyl h11G2 XC154/XC155; afucosylated h11G2 VL XC154/VH XC155) VH: EVQLVESGGGLVQPGGSLRLSCAASGFTFTDFYMSWVRQAPGKGLEWVGFIRNKANGYTTEYSASVKGRFTISRDNAKNSLYLQMNSLRAEDTAVYYCARVYGSTLHYWGQGTLVTVSS VL: DIQMTQSPSSLSASVGDRVTITCRASESVEYHGTSLMHWYQQKPGKAPKLLIYAASNVESGVPSRFSGSGSGTDFTLTISSLQPEDFATYYCQQSRKVPWTFGQGTKVEIKR reads 11.18

The measured pEC50 associated with Humanized 41A10 142/148 (antibody, human IgG1, V domains shown, also called h41A10 VH (XC148)/VL (XC142)) VH: EVQLVESGGGLVQPGGSLRLSCAASGFTFRSYGMSWVRQAPGKGLEWVATISSGGTYTFYPDILKGRFTISRDNAKNSLYLQMNSLRAEDTAVYYCARRGEDYRGALEHWGQGTLVTVSS VL: DIQMTQSPSSLSASVGDRVTITCSASSSVNYIHWYQQKPGKAPKRLIYETSRLASGVPSRFSGSGSGTDYTLTISSLQPEDFATYYCQQWSSNPLTFGQGTKVEIK reads 9.82
